- TARGET_UNDER_TEST: human GABA A receptor α5β3γ2 (Homo sapiens (Human), UniProt P18507+P31644)
- ASSAY: [3H]flumazenil competition binding assay, human GABA A α5β3γ2 receptors expressed in HEK293 cells
- CONDITIONS: human receptor; displacement of [3H]flumazenil (0.5 nM); means of two determinations; read-out: hKi GABAAa5
pKi: −log10 of the molar value.
TEST_READOUT: pKi

1) O=C(NCCO)c1ccc(OCc2c(-c3ccc(F)cc3)noc2C(F)(F)F)nc1 : 7.78
2) Cc1onc(-c2ccc(Cl)cc2)c1COc1ccc(C(=O)N[C@@H](C)CO)cn1 : 9.30
3) Cc1onc(-c2ccc(Cl)cn2)c1COc1ccc(C(=O)N2CCS(=O)(=O)CC2)cn1 : 9.22
4) Cc1onc(-c2ccc(F)cc2)c1CNc1ccc(C(=O)NCC2CC2)cn1 : 8.12
